Test system: HIV-1 (HE)
measurement-notes: Inhibition of HIV-1 replication in wild-type CEM/0 cell cultures
Assay type: cell-based
test-conditions: Human immunodeficiency virus 1, CCRF-CEM, read-out: Antiviral activity EC50 HIV-1 (HE)
measurement-label: pEC50
Entry type: numeric. Quantity: pEC50, the -log10 of concentration in molar units.

CCCCCCCCCCCCCCCCCCP(=O)(OCCCC)OP(=O)(O)OC[C@@H]1C=C[C@H](n2cc(C)c(=O)[nH]c2=O)O1 (stereo partly drawn)	7.51
CCCCCCCCCCCCCCCCCCP(=O)(OCCCC)OP(=O)(O)OC[C@H]1O[C@@H](n2ccc(=O)[nH]c2=O)C[C@@H]1F (stereo partly drawn)	7.24
CCCCCCCCCCCCCCCCCCOP(=O)(OCCCC)OP(=O)(O)OC[C@H]1O[C@@H](n2cc(C)c(=O)[nH]c2=O)C[C@@H]1N=[N+]=[N-] (stereo partly drawn)	7.24
CCCCCCCCCCCCCCCCCCOP(=O)(OCCCC)OP(=O)(O)OC[C@H]1O[C@@H](n2cc(C)c(=O)[nH]c2=O)C[C@@H]1F (stereo partly drawn)	8.17
CCCCCCCCCCCCCCCCCCP(=O)(OCCCC)OP(=O)(O)OC[C@H]1O[C@@H](n2cc(C)c(=O)[nH]c2=O)C[C@@H]1F (stereo partly drawn)	8.20

### Prompt Using the record for CCCCCCCCCCCCCCCCCCOP(=O)(OCCCC)OP(=O)(O)OC[C@@H]1C=C[C@H](n2cnc3c(NC4CC4)nc(N)nc32)C1 (stereo partly drawn) , report its pEC50.
### Response 7.80

### Prompt Suppose we examine the molecule CCCCCCCCCCCCCCCCCCOP(=O)(OCC(CC)CCCC)OP(=O)(O)OC[C@@H]1C=C[C@H](n2cc(C)c(=O)[nH]c2=O)O1 (stereo partly drawn) ; what pEC50 value has been reported?
### Response 7.15

### Prompt Any idea what its pEC50 is? The molecule is CCCCCCCCCCCCCCCCCCOP(=O)(OCCCC)OP(=O)(O)OC[C@H]1O[C@@H](n2ccc(=O)[nH]c2=O)C[C@@H]1F (stereo partly drawn)
### Response 6.85

### Prompt Fill in: pEC50 of CCCCCCCCCCCCCCCCCCP(=O)(OCCCC)OP(=O)(O)OC[C@@H]1C=C[C@H](n2cnc3c(NC4CC4)nc(N)nc32)C1 (stereo partly drawn) is ___
### Response 7.47

### Prompt Query (molecule): CCCCCCCCCCCCCCCCCCP(=O)(OCCCC)OP(=O)(O)OC[C@H]1O[C@@H](n2cc(C)c(=O)[nH]c2=O)C[C@@H]1N=[N+]=[N-] (stereo partly drawn) ; field requested: pEC50
### Response 7.06

### Prompt Using the record for Cc1cn([C@H]2C=C[C@@H](CO)O2)c(=O)[nH]c1=O [d4T, stavudine, reference compound] , report its pEC50.
### Response 6.48

### Prompt Can you look up the measured pEC50 of CCCCCCCCCCCCCCCCCCOP(=O)(OCCCC)OP(=O)(O)OC[C@@H]1C=C[C@H](n2cc(C)c(=O)[nH]c2=O)O1 (stereo partly drawn) for me?
### Response 7.48

---

Measured Selectivity index (SI) values are reported for all entries that follow.
Tested on: CD4^+ T-cell (CEM)
measurement-notes: Cytotoxicity: inhibition of CD4+ T-cell (CEM) proliferation
test-conditions: ratio between cell toxicity (CC50) and EC50 CEM/TK-
// no unit string in output, number only

Past entries and their recorded results:
CCCCCCCCCCCCCCCCCCP(=O)(OCCCC)OP(=O)(O)OC[C@H]1O[C@@H](n2cc(C)c(=O)[nH]c2=O)C[C@@H]1N=[N+]=[N-] (stereo partly shown) [No 20]	487
CCCCCCCCCCCCCCCCCCP(=O)(OCCCC)OP(=O)(O)OC[C@H]1O[C@@H](n2cc(C)c(=O)[nH]c2=O)C[C@@H]1F (stereo partly shown) [No 22]	3620
CCCCCCCCCCCCCCCCCCOP(=O)(OCCCC)OP(=O)(O)OC[C@H]1O[C@@H](n2cc(C)c(=O)[nH]c2=O)C[C@@H]1F (stereo partly shown) [No 21]	3447
CCCCCCCCCCCCCCCCCCP(=O)(OCCCC)OP(=O)(O)OC[C@H]1O[C@@H](n2ccc(=O)[nH]c2=O)C[C@@H]1F (stereo partly shown) [No 24]	1159
CCCCCCCCCCCCCCCCCCOP(=O)(OCCCC)OP(=O)(O)OC[C@@H]1C=C[C@H](n2cnc3c(NC4CC4)nc(N)nc32)C1 (stereo partly shown) [No 25]	3387

The record that follows has no Selectivity index (SI) shown yet.
### Prompt Given CCCCCCCCCCCCCCCCCCOP(=O)(OCCCC)OP(=O)(O)OC[C@H]1O[C@@H](n2cc(C)c(=O)[nH]c2=O)C[C@@H]1N=[N+]=[N-] (stereo partly shown) [No 19] , state its recorded Selectivity index (SI).
### Response 1112

---

System: HIV-2 (ROD)
measurement-notes: Inhibition of HIV-2 replication in thymidine kinase-deficient CEM/TK- cell cultures
Type: cell-based
test-conditions: Human immunodeficiency virus 2, CEM-TK(-), read-out: Antiviral activity EC50 CEM/TK^- HIV-2 (ROD)
measurement-label: EC50 (nM)
A number alone suffices; assume nM.

Use the examples below as a reference point.
CCCCCCCCCCCCCCCCCCP(=O)(OCCCC)OP(=O)(O)OC[C@H]1O[C@@H](n2cc(C)c(=O)[nH]c2=O)C[C@@H]1N=[N+]=[N-] (some centres unmarked)	170
Nc1nc(NC2CC2)c2ncn([C@H]3C=C[C@@H](CO)C3)c2n1 [ABC, abacavir, reference compound]	1980
CCCCCCCCCCCCCCCCCCP(=O)(OCCCC)OP(=O)(O)OC[C@H]1O[C@@H](n2ccc(=O)[nH]c2=O)C[C@@H]1F (some centres unmarked)	51

As a next step, examine the compound that follows.
### Prompt Item CCCCCCCCCCCCCCCCCCOP(=O)(OCCCC)OP(=O)(O)OC[C@H]1O[C@@H](n2cc(C)c(=O)[nH]c2=O)C[C@@H]1N=[N+]=[N-] (some centres unmarked) with HIV-2 (ROD) - EC50?
### Response 43

---

measurement-notes: Chemical stability (hydrolysis half-life) in phosphate-buffered saline, RP-18 HPLC
Format: physicochemical
test-conditions: phosphate buffer saline (PBS, pH 7.3); read-out: Half-lives PBS (converted)
Here, each record is paired with measured half-life data.

Reference set (2 entries):
CCCCCCCCCCCCCCCCCCP(=O)(OCCCC)OP(=O)(O)OC[C@@H]1C=C[C@H](n2cc(C)c(=O)[nH]c2=O)O1 (stereo partly drawn) [No 18]	> 125 days
CCCCCCCCCCCCCCCCCCP(=O)(OCCCC)OP(=O)(O)OC[C@@H]1C=C[C@H](n2cnc3c(NC4CC4)nc(N)nc32)C1 (stereo partly drawn) [No 26]	> 41.7 days

Let us move to another entry and its half-life.
### Prompt Quick one: half-life of CCCCCCCCCCCCCCCCCCP(=O)(OCCCC)OP(=O)(O)OC[C@H]1O[C@@H](n2cc(C)c(=O)[nH]c2=O)C[C@@H]1F (stereo partly drawn) [No 22] ?
### Response > 83.3 days

---

Quick reference for Selectivity index (SI) among some molecules
Test system: CD4^+ T-cell (CEM)
measurement-notes: Cytotoxicity: inhibition of CD4+ T-cell (CEM) proliferation
test-conditions: ratio between cell toxicity (CC50) and EC50 CEM/TK-
When you answer, write just the number.

Example molecules with recorded Selectivity index (SI):
CCCCCCCCCCCCCCCCCCOP(=O)(OCC(CC)CCCC)OP(=O)(O)OC[C@@H]1C=C[C@H](n2cc(C)c(=O)[nH]c2=O)O1 (stereo partly shown)	4226
CCCCCCCCCCCCCCCCCCP(=O)(OCCCC)OP(=O)(O)OC[C@@H]1C=C[C@H](n2cc(C)c(=O)[nH]c2=O)O1 (stereo partly shown)	20309

With those in mind, consider the next molecule.
### Prompt So what Selectivity index (SI) did CCCCCCCCCCCCCCCCCCOP(=O)(OCCCC)OP(=O)(O)OC[C@H]1O[C@@H](n2ccc(=O)[nH]c2=O)C[C@@H]1F (stereo partly shown) get with CD4^+ T-cell (CEM)?
### Response 213

---

System: CD4^+ T-cell (CEM)
measurement-notes: Cytotoxicity: inhibition of CD4+ T-cell (CEM) proliferation
test-conditions: ratio between cell toxicity (CC50) and EC50 CEM/TK-
# Selectivity index (SI) per record follows

Solved cases below.
CCCCCCCCCCCCCCCCCCP(=O)(OCCCC)OP(=O)(O)OC[C@@H]1C=C[C@H](n2cnc3c(NC4CC4)nc(N)nc32)C1 (stereo partly shown)	>100000
Cc1cn([C@H]2C=C[C@@H](CO)O2)c(=O)[nH]c1=O [d4T, stavudine, reference compound]	>1
Cc1cn([C@H]2C[C@H](N=[N+]=[N-])[C@@H](CO)O2)c(=O)[nH]c1=O [AZT, zidovudine, reference compound]	>1

### Prompt Give its Selectivity index (SI) value. Item: Nc1nc(NC2CC2)c2ncn([C@H]3C=C[C@@H](CO)C3)c2n1 [ABC, abacavir, reference compound]
### Response >50
